target: Glutamate receptor ionotropic, NMDA 1 (Rattus norvegicus, UniProt P35439); test: Inhibition of [3H]- glycine binding to NMDA receptor from rat cortical membranes.; format: cell membranes, Membrane
endpoint: log10(IC50) (log10 of the value in µM)

smiles_representation=O=C(Cc1cccs1)N[C@H]1C[C@H](C(=O)O)Nc2cc(Cl)cc(Cl)c21 system_tested="Glutamate receptor ionotropic, NMDA 1 (Rattus norvegicus, UniProt P35439)" test_value=-1.49
smiles_representation=O=C(O)[C@H]1C[C@H](N2Cc3ccccc3CC2=O)c2c(Cl)cc(Cl)cc2N1 system_tested="Glutamate receptor ionotropic, NMDA 1 (Rattus norvegicus, UniProt P35439)" test_value=-1.14
smiles_representation=O=C(NCc1ccccc1)[C@H]1C[C@H](C(=O)O)Nc2cc(Cl)cc(Cl)c21 system_tested="Glutamate receptor ionotropic, NMDA 1 (Rattus norvegicus, UniProt P35439)" test_value=0.23
smiles_representation=O=C(Cc1ccsc1)N[C@H]1C[C@H](C(=O)O)Nc2cc(Cl)cc(Cl)c21 system_tested="Glutamate receptor ionotropic, NMDA 1 (Rattus norvegicus, UniProt P35439)" test_value=-1.52
smiles_representation=O=C(N[C@H]1C[C@H](C(=O)O)Nc2cc(Cl)cc(Cl)c21)c1ccccc1 system_tested="Glutamate receptor ionotropic, NMDA 1 (Rattus norvegicus, UniProt P35439)" test_value=-1.00
smiles_representation=O=C(N[C@H]1C[C@H](C(=O)O)Nc2cc(Cl)cc(Cl)c21)C(c1ccccc1)c1ccccc1 system_tested="Glutamate receptor ionotropic, NMDA 1 (Rattus norvegicus, UniProt P35439)" test_value=-1.21
smiles_representation=O=C(O)[C@H]1CCc2c(Cl)cc(Cl)cc2N1 system_tested="Glutamate receptor ionotropic, NMDA 1 (Rattus norvegicus, UniProt P35439)" test_value=0.81
smiles_representation=O=C(CN[C@H]1C[C@H](C(=O)O)Nc2cc(Cl)cc(Cl)c21)Nc1ccccc1 system_tested="Glutamate receptor ionotropic, NMDA 1 (Rattus norvegicus, UniProt P35439)" test_value=-0.38
smiles_representation=CC(C)(C)OC(=O)N[C@H]1C[C@H](C(=O)O)Nc2cc(Cl)cc(Cl)c21 system_tested="Glutamate receptor ionotropic, NMDA 1 (Rattus norvegicus, UniProt P35439)" test_value=-0.03
smiles_representation=O=C(Cc1ccccc1)N[C@H]1C[C@H](C(=O)O)Nc2cc(Cl)cc(I)c21 system_tested="Glutamate receptor ionotropic, NMDA 1 (Rattus norvegicus, UniProt P35439)" test_value=-2.00

---

molecular target: Glutamate receptor ionotropic, NMDA 1 (Rattus norvegicus, UniProt P35439); test: Inhibition of [3H]- glycine binding to NMDA receptor from rat cortical membranes.; type: cell membranes, Membrane
// classify: if (IC50 < 50 nM) true else false

compound=O=C(NC1CCCCC1)N[C@H]1C[C@H](C(=O)O)Nc2cc(Cl)cc(Cl)c21 class=true
compound=O=C(O)[C@H]1C[C@H](N2CCCC2=O)c2c(Cl)cc(Cl)cc2N1 class=true
compound="O=C(Cc1ccccc1)N[C@H]1C[C@H](C(=O)O)Nc2cc(Cl)cc(Cl)c21 (stereo in doubt; 16)" class=false
compound=O=C(Cc1ccccc1)N[C@H]1C[C@H](C(=O)O)Nc2cc(I)cc(Cl)c21 class=true
compound=Cc1cc(C)c2c(c1)N[C@@H](C(=O)O)C[C@@H]2NC(=O)Cc1ccccc1 class=false
compound=O=C(O)[C@H]1C[C@H](NC(=O)N(c2ccccc2)c2ccccc2)c2c(Cl)cc(Cl)cc2N1 class=true
compound=Cc1cccc(NC(=O)N[C@H]2C[C@H](C(=O)O)Nc3cc(Cl)cc(Cl)c32)c1 class=true
compound=O=C(N[C@H]1C[C@H](C(=O)O)Nc2cc(Cl)cc(Cl)c21)OCc1ccccc1 class=false
compound=O=C(NCc1ccccc1)N[C@H]1C[C@H](C(=O)O)Nc2cc(Cl)cc(Cl)c21 class=true

From: ChEMBL document CHEMBL1126053
